Experiment: Pharmacokinetic properties in mice
Format: in vivo
Conditions: female, Balb/c; mouse plasma, PO 10 mg/kg
property: half-life

Request: Tell me its half-life given Cc1cc(Nc2ncnn3ccc(CN4CCC(N)CC4)c23)ccc1Oc1ccn2ncnc2c1 as the entry.
Result: 1.08 h

###

Test: Pharmacokinetic properties in mice
Format: in vivo
Conditions: female, Balb/c, plasma; mouse, IV 1 mg/kg
property: clearance (mL/min/kg)
Please state the figure in mL/min/kg; there is no need to write the unit.

Request: Tell me its clearance given Cc1cc(Nc2ncnn3ccc(CN4CCC(N)CC4)c23)ccc1Oc1ccn2ncnc2c1 as the entry.
Result: 19.2

###

Test: Pharmacokinetic properties in mice
Assay type: in vivo
Details: female, Balb/c; mouse plasma, IV 1 mg/kg
Method: The tested compound was dissolved in 10% DMSO/45% PEG400/45% water, vortexed and sonicated to prepare a clear solution with the corresponding concentration, which was filtered through a millipore filter for use. […] The drug concentration was analyzed by the LC-MS/MS method, and the pharmacokinetic parameters were calculated by the Phoenix WinNonlin software (Pharsight, USA).
property: half-life (h)
Please state the figure in h; there is no need to write the unit.

Request: Tell me its half-life given Cc1cc(Nc2ncnn3ccc(CN4CCC(N)CC4)c23)ccc1Oc1ccn2ncnc2c1 as the entry.
Result: 1.65

###

Assay: Pharmacokinetic properties in rats
Assay type: in vivo
Conditions: male, SD; rat plasma, PO 50 mg/kg
Description: The tested compound was dissolved in 10% NMP/10% polyethylene glycol-15-hydroxystearate/80% water, vortexed and sonicated to prepare a 2.5 mg/mL clear solution, which was filtered through a millipore filter for use. Three male SD rats were administered intravenously with the candidate compound solution at a dose of 5 mg/kg. […] The drug concentration was analyzed by the LC-MS/MS method, and the pharmacokinetic parameters were calculated by the Phoenix WinNonlin software (Pharsight, USA).
property: AUC(0-inf) (µM·h)
Please state the figure in µM·h; there is no need to write the unit.

Request: Tell me its AUC(0-inf) given Cc1cc(Nc2ncnn3ccc(CN4CCC(N)CC4)c23)ccc1Oc1ccn2ncnc2c1 as the entry.
Result: 34.9

###

Assay: Pharmacokinetic properties in mice
Assay type: in vivo
Settings: female, Balb/c, plasma; mouse, PO 10 mg/kg; read-out: F (bioavailability)
property: bioavailability (%)
Please state the figure in %; there is no need to write the unit.

Request: Tell me its bioavailability given Cc1cc(Nc2ncnn3ccc(CN4CCC(N)CC4)c23)ccc1Oc1ccn2ncnc2c1 [Example 4] as the entry.
Result: 40.2

###

Experiment: Pharmacokinetic properties in mice
Format: in vivo
Details: female, Balb/c; mouse plasma, PO 2 mg/kg
property: AUC(0-t) (µM·h)
Please state the figure in µM·h; there is no need to write the unit.

Request: Tell me its AUC(0-t) given Cc1cc(Nc2ncnn3ccc(CN4CCC(N)CC4)c23)ccc1Oc1ccn2ncnc2c1 as the entry.
Result: 0.928

###

Assay: Concentration of Example 4 in plasma, tumor tissue and brain tissue (NCI-N87 model, day 21)
Type: in vivo, BALB/c nude mice
Conditions: BALB/c nude, mouse, brain tissue, 100 mg/kg; day 21, 2 h after last administration; read-out: Drug concentration, brain tissue
property: concentration at 2 h
Please make sure the unit comes right after the number.

Request: Tell me its concentration at 2 h given Cc1cc(Nc2ncnn3ccc(CN4CCC(N)CC4)c23)ccc1Oc1ccn2ncnc2c1 as the entry.
Result: 1010 nM

Provenance of the data: patent US12030897B2
